- Target: Estrogen receptor beta (Homo sapiens)
- Assay: inhibitors of ERβ-SRC1 coactivator interaction, primary screen, biochemical, TR-FRET, ERβ LBD, SRC-1 peptide (AID 633);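 also: 0% = receptor plus peptide wells without compound and 100% = peptide-only wells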
- Settings: TR-FRET ER-beta LBD / SRC1-Cy5 peptide binding; at 25.6 µM; receptor agonist-loaded with 1 µM estradiol
Hit rate of the full screen: of about 86,000 compounds, about 1,100 (1.3%) were called active.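 The calls were made as follows: active = compounds whose percent inhibition of the receptor-coactivator binding signal exceeds about 50% in the single-dose screen (limit read from the data); inactive = the rest.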 This excerpt belongs to a sample that is enriched for actives.
Outcomes: label 1 (active), label 0 (inactive)

compound="CCCn1c(C(Cc2ccccc2)NC(=O)COC)nc2ccccc21 (stereo unspecified)" class_assignment="label 0"
compound="Cc1ccc2c(c1)N(CC(=O)N(Cc1ccccn1)Cc1ccco1)C(=O)C(C(C)C)O2 (stereo unspecified)" class_assignment="label 0"
compound=Cc1ccc(S(=O)(=O)NC(=O)COc2ccccc2C)cc1 class_assignment="label 0"
compound="O=C(Nc1nnc(SCc2c(Cl)cccc2Cl)s1)C1CCCO1 (stereo unspecified)" class_assignment="label 0"
compound="CC1(N2CCOCC2)CC2(O)C(=[N+]1[O-])CCc1nonc12 (stereo unspecified)" class_assignment="label 1"
compound="CCOC(=O)C1=C(C)NC(SC)=NC1c1ccccc1 (stereo unspecified)" class_assignment="label 0"
compound=C=CCn1c(SCc2c(C(=O)OC)sc(N)c2C(=O)OC)nnc1-c1ccc(Cl)cc1 class_assignment="label 0"
compound=CCOC(=O)N1CCN(C(=O)c2cc3c(ccc4ccccc43)oc2=O)CC1 class_assignment="label 0"
compound="N#CC1=C(N)N(c2ccccc2)C2=C(C(=O)CCC2)C1c1ccccc1 (stereo unspecified)" class_assignment="label 0"
compound=CCCCOc1ccc(C(=O)NCc2ccncc2)cc1 class_assignment="label 0"
compound="CCOC(=O)N1CCN(C(c2cccnc2)c2ccc3cccnc3c2O)CC1 (stereo unspecified)" class_assignment="label 1"

---

- Target: Estrogen receptor beta (Homo sapiens)
- Assay: inhibitors of ERβ-SRC1 coactivator interaction, primary screen, biochemical, TR-FRET, ERβ LBD, SRC-1 peptide (AID 633);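 also: 0% = receptor plus peptide wells without compound and 100% = peptide-only wells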
- Settings: TR-FRET ER-beta LBD / SRC1-Cy5 peptide binding; at 25.6 µM; receptor agonist-loaded with 1 µM estradiol
Among all 86,000 compounds or so, about 1,100 (1.3%) were called active.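 How the source made its calls: active means compounds whose percent inhibition of the receptor-coactivator binding signal exceeds about 50% in the single-dose screen (limit read from the data); inactive means the rest.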 Only a selection was taken, and actives are over-represented in it overall.
Outcomes: yes = active, no = inactive

compound="COc1ccccc1NC(=O)C1CCCN(c2cc(C)nc3ncnn23)C1 (stereo not drawn)" target="Estrogen receptor beta (Homo sapiens)" class_assignment=no
compound="N#CC1=C(N)Oc2c(sc3ccccc23)C1c1ccco1 (stereo not drawn)" target="Estrogen receptor beta (Homo sapiens)" class_assignment=yes
compound=CCCCNC(=O)C1(c2ccc(OC)cc2)CCOCC1 target="Estrogen receptor beta (Homo sapiens)" class_assignment=no
compound="CC(C)CC(N=C1NC(C)(C)Cc2ccccc21)C(=O)O (stereo not drawn)" target="Estrogen receptor beta (Homo sapiens)" class_assignment=no
compound=CCCCCCNC(=O)CSc1nccn1Cc1ccccc1 target="Estrogen receptor beta (Homo sapiens)" class_assignment=no
compound=C=CCc1ccc(OCCOc2cccc(/C=N/n3cnnc3)c2)c(OC)c1 target="Estrogen receptor beta (Homo sapiens)" class_assignment=no
compound=O=C(CN1C(=O)CC(c2ccccc2)=Nc2ccccc21)NC1CCCCC1 target="Estrogen receptor beta (Homo sapiens)" class_assignment=no
compound=CCOc1ccc(S(=O)(=O)Nc2ccc(S(=O)(=O)Nc3cc(OC)ccc3OC)cc2)cc1 target="Estrogen receptor beta (Homo sapiens)" class_assignment=no
compound=Oc1ccc(-c2csc(Nc3cccnc3)n2)cc1 target="Estrogen receptor beta (Homo sapiens)" class_assignment=no
compound=COc1ccc(-c2n[nH]c(C)c2-c2ccc(OC)c(OC)c2)c(O)c1 target="Estrogen receptor beta (Homo sapiens)" class_assignment=no
compound=COc1cc(OC)c(C(=O)NC2CCCCCC2)cc1OC target="Estrogen receptor beta (Homo sapiens)" class_assignment=no
compound=COCCCn1c(SCC(=O)Nc2ccccc2)nnc1-c1ccncc1 target="Estrogen receptor beta (Homo sapiens)" class_assignment=no
compound=CCOC(=O)c1ccccc1NS(=O)(=O)c1ccc(OC)cc1 target="Estrogen receptor beta (Homo sapiens)" class_assignment=no
compound=O=C(Oc1ccccc1C(=S)N1CCCCC1)c1cc([N+](=O)[O-])cc([N+](=O)[O-])c1 target="Estrogen receptor beta (Homo sapiens)" class_assignment=no
compound="COc1ccc(C2C(C(C)=O)=C(O)C(=O)N2Cc2cccnc2)cc1 (stereo not drawn)" target="Estrogen receptor beta (Homo sapiens)" class_assignment=no
compound=COc1ccc(CCn2c(=N)c(C(=O)NCc3ccco3)cc3c(=O)n4cccc(C)c4nc32)cc1 target="Estrogen receptor beta (Homo sapiens)" class_assignment=no
compound="COc1ccccc1NC(=O)CSc1nnc(C)n1CC1CCCO1 (stereo not drawn)" target="Estrogen receptor beta (Homo sapiens)" class_assignment=no
compound=CCCc1nc2oc3c(OCC)ncnc3c2c2c1COC(C)(C)C2 target="Estrogen receptor beta (Homo sapiens)" class_assignment=no

---

- Target: Estrogen receptor beta (Homo sapiens)
- Assay: inhibitors of ERβ-SRC1 coactivator interaction, primary screen, biochemical, TR-FRET, ERβ LBD, SRC-1 peptide (AID 633);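 also: 0% = receptor plus peptide wells without compound and 100% = peptide-only wells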
- Settings: TR-FRET ER-beta LBD / SRC1-Cy5 peptide binding; at 25.6 µM; stronger effect = higher value; receptor agonist-loaded with 1 µM estradiol
Among all 86,000 compounds or so, about 1,100 (1.3%) were called active. Many of the other results were omitted from the sample, so actives are more common in it than they were.
Measured Endpoint: inhibition

compound="Cn1c(C(=O)OC(C(=O)NC2CCCCC2)c2ccccn2)cc2sccc21 (centres undefined)" measured_endpoint=inhibition recorded_value="-0.81% (inactive)"
compound=COc1ccccc1/C=C/C1=NC(=C\N(C)C)/C(=O)O1 measured_endpoint=inhibition recorded_value="1.45% (inactive)"
compound="COc1cc(C2CC(=O)c3cnc(NC(C)=O)nc3C2)cc(OC)c1OC (centres undefined)" measured_endpoint=inhibition recorded_value="-3.76% (inactive)"
compound="CC1CN(S(=O)(=O)c2ccccc2)C(C)CN1S(=O)(=O)c1ccccc1 (centres undefined)" measured_endpoint=inhibition recorded_value="1.26% (inactive)"
compound="O=C1C2C3C=CC(C4CC34)C2C(=O)N1/N=C/c1ccc(-c2ccccc2[N+](=O)[O-])o1 (centres undefined)" measured_endpoint=inhibition recorded_value="2.95% (inactive)"
compound=O=C1CSC2=NCN(c3ccccc3)CN12 measured_endpoint=inhibition recorded_value="-6.24% (inactive)"
compound=Cc1cc(S(=O)(=O)NC2CCCCC2)ccc1OCC(=O)NCc1cccnc1 measured_endpoint=inhibition recorded_value="-4.71% (inactive)"
compound=CC(=O)c1sc2nc(SCC(=O)N3CCCCC3)[nH]c(=O)c2c1C measured_endpoint=inhibition recorded_value="56.2% (active)"
compound=Cc1ccc(-n2ccc(=O)c(C(=O)O)n2)cc1 measured_endpoint=inhibition recorded_value="-4.61% (inactive)"
compound=Cc1ccc(CNC(=O)CN2CCN(Cc3ccc(Cl)cc3)C2=O)cc1 measured_endpoint=inhibition recorded_value="52.1% [fluorescence artefact?] (active)"
compound=Oc1ccc(CNc2ccccc2O)cc1 measured_endpoint=inhibition recorded_value="52.5% [fluorescence artefact?] (active)"
compound=CC(=O)Nc1ccc(S(=O)(=O)N2CCN(C(=O)c3ccccc3F)CC2)cc1 measured_endpoint=inhibition recorded_value="-9.27% (inactive)"
compound=COc1ccc(NC(=O)CSc2nc(NS(=O)(=O)c3ccc(C)cc3)cc(=O)[nH]2)cc1 measured_endpoint=inhibition recorded_value="-6.84% (inactive)"
compound="CC(C)CNC(=O)CC(c1ccccc1)c1c(O)ccc2ccccc12 (centres undefined)" measured_endpoint=inhibition recorded_value="-3.69% (inactive)"
compound=C1=C(N2CCOCC2)/C(=C/c2nc3ccccc3[nH]2)CC1 measured_endpoint=inhibition recorded_value="72.1% (active)"
compound=CCCCOC(=O)Cn1c(=O)n(CC(=O)OCCCC)c2cc(C)ccc21 measured_endpoint=inhibition recorded_value="-3.48% (inactive)"
compound=CCOC(=O)CSc1nc2sc3c(c2c(=O)[nH]1)CC(C)(C)OC3 measured_endpoint=inhibition recorded_value="-8.89% (inactive)"
compound=Cc1cccc(C(=O)N2CCCN(C(=O)c3cccc(C)c3)CC2)c1 measured_endpoint=inhibition recorded_value="-0.48% (inactive)"
compound=O=C(NCc1ccccn1)c1cc2ccccc2oc1=O measured_endpoint=inhibition recorded_value="-2.55% (inactive)"
compound=C=C(C)Cn1c(SCC(=O)NCc2ccco2)nc2sc3c(c2c1=O)CCC3 measured_endpoint=inhibition recorded_value="9.18% (inactive)"
compound=Cc1noc(/C=C/c2ccco2)c1S(=O)(=O)N1CCC(C(=O)N2CCc3ccccc32)CC1 measured_endpoint=inhibition recorded_value="-6.43% (inactive)"
compound=O=C(Nc1ccc(-c2nnc(-c3ccccc3)o2)cc1)c1ccc(Br)o1 measured_endpoint=inhibition recorded_value="30% (inactive)"
compound="Cc1cc(NC(=O)CSc2nc(C(C)C)nc3sc4c(c23)CCC(C)C4)no1 (centres undefined)" measured_endpoint=inhibition recorded_value="-5.67% (inactive)"
compound=O=C(c1cccnc1NCc1ccccc1)N1CCOCC1 measured_endpoint=inhibition recorded_value="2.12% (inactive)"
compound=CCN(CC)S(=O)(=O)c1ccc2[nH]cc(C(=O)NCCc3ccccc3)c(=O)c2c1 measured_endpoint=inhibition recorded_value="51.1% [fluorescence artefact?] (active)"
compound=COc1ccc(-c2nnc(SCC(=O)c3ccco3)n2-c2ccccc2)cc1 measured_endpoint=inhibition recorded_value="7.14% (inactive)"
compound=c1ccc2[nH]c(NCCN3CCOCC3)nc2c1 measured_endpoint=inhibition recorded_value="-3.02% (inactive)"
compound="CC1CCCC(NC(=O)CN2CCN(Cc3ccc(Cl)cc3)C2=O)C1C (centres undefined)" measured_endpoint=inhibition recorded_value="-3.92% (inactive)"
compound="O=C(NC1CCCC1)C(c1ccccn1)N(C(=O)c1csnn1)C1CCCC1 (centres undefined)" measured_endpoint=inhibition recorded_value="3.18% (inactive)"
compound=Cc1cc(O)cc(O)c1C(=O)Cc1cnn(-c2ccccc2)c1 measured_endpoint=inhibition recorded_value="-7.76% (inactive)"
compound=C=CCNC(=O)CSc1nc2sc(C)c(C)c2c(=O)[nH]1 measured_endpoint=inhibition recorded_value="6.38% (inactive)"
compound=Nc1ccc(-c2nnc(-c3ccc(-c4ccccc4)cc3)o2)cc1 measured_endpoint=inhibition recorded_value="19.9% (inactive)"
compound="COc1ccc(C(C#N)Nc2ccccc2C)cc1 (centres undefined)" measured_endpoint=inhibition recorded_value="-1.62% (inactive)"
compound=N#CCSc1nc2ccccc2c(=O)n1-c1ccccc1 measured_endpoint=inhibition recorded_value="8.58% (inactive)"
